Source: PubChem BioAssay

assay: differential killing of epithelial or mesenchymal cells, primary screen, imaging, PC-3E GFP, TEM4-18 mCherry, co-culture (AID 1345086); conditions: imaging cell counts, measured here: mesenchymal TEM4-18 mCherry cell survival, at 1 µM;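 note: cells exposed to compound for 72 h before imaging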
Please note: yes applies when normalised cell number is 1 or greater, and no applies otherwise.

Inquiry: Quick check, normalised cell number >= 1? CNCCC(Oc1ccc(C(F)(F)F)cc1)c1ccccc1 (stereo unspecified)
Reply text: yes

Inquiry: Quick check, normalised cell number >= 1? COc1c(CC(=O)c2cc3c(cc2O)OC(C)(C)C(O)C3)ccc2c1C=CC(C)(C)O2 (stereo unspecified)
Reply text: no

Inquiry: Quick check, normalised cell number >= 1? C=C[C@H]1CN2CC[C@H]1C[C@@H]2[C@@H](O)c1ccnc2ccc(OC)cc12
Reply text: yes

Inquiry: Quick check, normalised cell number >= 1? COc1c2c(cc3occ(-c4ccc5c(c4)OCO5)c(=O)c13)OC(C)(C)C=C2
Reply text: yes

Inquiry: Quick check, normalised cell number >= 1? COc1ccc2c(c1)OCC(Cc1ccc(OC)c(OC)c1)C2=O (stereo unspecified)
Reply text: no

Inquiry: Quick check, normalised cell number >= 1? CCNC(=O)CC[C@H](N)C(=O)O
Reply text: yes

Inquiry: Quick check, normalised cell number >= 1? Cc1cc2c(cc1S(N)(=O)=O)S(=O)(=O)CCC2
Reply text: no

Inquiry: Quick check, normalised cell number >= 1? N=c1nc(N2CCCCC2)cc(N)n1O
Reply text: yes

More entries:
Inquiry: Quick check, normalised cell number >= 1? COc1cc(/C=C/C(=O)O)cc(OC)c1OC
Reply text: yes

Inquiry: Quick check, normalised cell number >= 1? COc1ccc2cc1Oc1ccc(cc1)C[C@H]1c3cc(c(OC)cc3CCN1C)Oc1c(OC)c(OC)cc3c1[C@H](C2)N(C)CC3
Reply text: no

Inquiry: Quick check, normalised cell number >= 1? NC(N)=O
Reply text: yes

Inquiry: Quick check, normalised cell number >= 1? CC1(C)[C@@H]2CC[C@@]1(C)C(=O)C2
Reply text: yes

Inquiry: Quick check, normalised cell number >= 1? CCCCCCCC/C=C/CCCCCCCCOP(=O)([O-])OCC[N+](C)(C)C
Reply text: no

----------
test: LFS_MB_P medulloblastoma growth inhibition, cell-based, chromothripsis tumors, cisplatin or BGB combos (AID 1671449); conditions: LFS_MB_P medulloblastoma cells, measured here: combination with cisplatin, at 5 µM, stronger effect = higher value;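 note: cells exposed for 96 hours; 0% = vehicle DMSO and 100% = killing by high DMSO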
Give inhibition for every item shown.
One number for each entry, in %.

Hi there! I need inhibition for each item below, if you can.
1. Nc1ncn([C@H]2C[C@H](O)[C@@H](CO)O2)c(=O)n1
2. O=c1[nH]c(=O)n([C@H]2C[C@H](O)[C@@H](CO)O2)cc1Br
3. O=c1c(O)c(-c2ccc(O)c(O)c2)oc2cc(O)ccc12
4. CN1CCN(c2c(F)cc3c(=O)c(C(=O)O)cn(CCF)c3c2F)CC1
5. CC1(C(=O)O)CCC2(C)CCC3(C)C(=CC(=O)C4C5(C)CCC(OC(=O)CCC(=O)O)C(C)(C)C5CCC43C)C2C1 (configuration not stated)
6. CN1CCN(c2c(F)cc3c(=O)c(C(=O)O)cn4c3c2OCN4C)CC1
7. CN1C[C@@H]2C[C@H]1CN2c1cc2c(cc1F)c(=O)c(C(=O)O)cn2C1CC1
8. CCn1nc(C(=O)O)c(=O)c2cc3c(cc21)OCO3

Reply text:
[18, -36, 11, 1.02, 6.61, -32.3, -5.22, -41.5]

----------
test: HDN33 neuroblastoma growth inhibition, cell-based, chromothripsis tumors, cisplatin or BGB combos (AID 1671450); conditions: HDN33 neuroblastoma cells, cisplatin combo, at 5 µM, stronger effect = higher value;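 note: cells exposed to compound for four days; 0% = vehicle DMSO and 100% = cell killing by high DMSO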
Give inhibition for every item shown.
One number for each entry, in %.

Inquiry: Need inhibition of Nc1ncn([C@H]2C[C@H](O)[C@@H](CO)O2)c(=O)n1 , thanks.
Reply text: 54.4

Inquiry: Need inhibition of O=c1[nH]c(=O)n([C@H]2C[C@H](O)[C@@H](CO)O2)cc1C(F)(F)F , thanks.
Reply text: 74.4

Inquiry: Need inhibition of O=c1[nH]c(=O)n([C@H]2C[C@H](O)[C@@H](CO)O2)cc1Br , thanks.
Reply text: 2.65

Inquiry: Need inhibition of Cc1ccc2nc(N)[nH]c(=O)c2c1Sc1ccncc1 , thanks.
Reply text: 28.1

Inquiry: Need inhibition of Nc1ccc2cc3ccc(N)cc3nc2c1 , thanks.
Reply text: 99.6

Hi there! I need inhibition for each item below, if you can.
1. O=C(CCCCCCC(=O)Nc1ccccc1)NO
2. CCOC(=O)Nc1ccc(NCc2ccc(F)cc2)nc1N
3. CN1CCN(c2c(F)cc3c(=O)c(C(=O)O)cn(CCF)c3c2F)CC1
4. N=c1ccn2c(n1)O[C@H]1[C@H](O)[C@@H](CO)O[C@H]12
5. CC1(C(=O)O)CCC2(C)CCC3(C)C(=CC(=O)C4C5(C)CCC(OC(=O)CCC(=O)O)C(C)(C)C5CCC43C)C2C1 (stereo unspecified)
6. N=C(N=C(N)N)N1CCOCC1
7. CN1C[C@@H]2C[C@H]1CN2c1cc2c(cc1F)c(=O)c(C(=O)O)cn2C1CC1

Reply text:
98
-18.8
34.1
80.9
-11.2
9.3
-33.7

----------
test: differential killing of epithelial or mesenchymal cells, primary screen, imaging, PC-3E GFP, TEM4-18 mCherry, co-culture (AID 1345086); conditions: imaging cell counts, measured here: mesenchymal TEM4-18 mCherry cell survival, at 1 µM;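 note: cells exposed to compound for 72 h before imaging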
observable: normalised cell number

Worked examples, 5 compounds total:
Inquiry: Need normalised cell number of COc1cc(O)c2c(c1)C(=O)c1cc(C)cc(O)c1C2=O , thanks.
Reply text: 1.01

Inquiry: Need normalised cell number of CC(C)(C)NC[C@H](O)c1ccc(O)c(CO)c1 , thanks.
Reply text: 0.92

Inquiry: Need normalised cell number of C=CC(C)(O)CC/C=C(\C)CCC=C(C)C (centres undefined) , thanks.
Reply text: 0.98

Inquiry: Need normalised cell number of COc1cc(/C=C/C(N)=O)cc(OC)c1OC , thanks.
Reply text: 1.03

Inquiry: Need normalised cell number of O=C(O)c1cc(=O)[nH]c(=O)[nH]1 , thanks.
Reply text: 0.99

Hi there! I need normalised cell number for each item below, if you can.
1. COc1cc(N)c(Cl)cc1C(=O)NC1CCN(CCCOc2ccc(F)cc2)CC1OC (centres undefined)
2. C=C1C(N)CC2CC1C2(C)C (centres undefined)
3. O=C1OC(=O)C2C3CCC(O3)C12 (centres undefined)
4. COc1cc(O)c(C(=O)c2ccccc2)cc1O

Reply text:
1. 0.88
2. 1.15
3. 1.06
4. 1.17

Hi there! I need normalised cell number for each item below, if you can.
1. Cc1cc(/C=C/c2ccc3cc(N(C)C)ccc3[n+]2C)c(C)n1-c1ccccc1
2. O=C(O)COCCN1CCN(C(c2ccccc2)c2ccc(Cl)cc2)CC1 (centres undefined)
3. CN1CCc2c(c3ccccc3n2Cc2ccccc2)C1
4. C=C1c2c(Cl)ccc(O)c2C(O)=C2C(=O)[C@]3(O)C(O)=C(C(N)=O)C(=O)[C@@H](N(C)C)[C@@H]3[C@@H](O)[C@H]12
5. Cc1ccc(N(CC2=NCCN2)c2cccc(O)c2)cc1
6. COC(=O)C1=C(C)NC(C)=C(C(=O)OCCN(C)Cc2ccccc2)C1c1cccc([N+](=O)[O-])c1 (centres undefined)
7. CC1=C(/C=C/C(C)=C/C=C/C(C)=C\C(=O)O)C(C)(C)CCC1

Reply text:
1. 1.08
2. 0.88
3. 0.82
4. 0.84
5. 0.97
6. 0.89
7. 1.18

Hi there! I need normalised cell number for each item below, if you can.
1. NC(=O)c1cc[n+](CC2=C(C(=O)[O-])N3C(=O)[C@@H](NC(=O)Cc4cccs4)[C@H]3SC2)cc1
2. CC(=C(CCOP(=O)(O)O)SC(=O)c1ccccc1)N(C=O)Cc1cnc(C)nc1N
3. C=C1C2CC[C@@]3(C)[C@H](c4ccoc4)OC(=O)C[C@]13O[C@H]1CC(O)C(C)(C)C(CC(=O)OC)[C@@]21C (some centres undefined)
4. CCn1nc(C(=O)O)c(=O)c2cc3c(cc21)OCO3
5. NC1=NCCN1CC(=O)O

Reply text:
0.94
1
1
1.38
1.01

----------
Give inhibition for every item shown.
test: LFS_MB_2R medulloblastoma cell growth inhibition, synergistic combos for chromothripsis tumors, cisplatin combos (AID 1671457); conditions: LFS_MB_2R medulloblastoma cells, measured here: combination with cisplatin, at 0.5 µM, stronger effect = higher value;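 note: cells exposed to compound for four days before readout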
One number for each entry, in %.

Worked examples, 3 compounds total:
Inquiry: Need inhibition of Nc1ccc2cc3ccc(N)cc3nc2c1 , thanks.
Reply text: -2.23

Inquiry: Need inhibition of N=c1ccn2c(n1)O[C@H]1[C@H](O)[C@@H](CO)O[C@H]12 , thanks.
Reply text: 6.24

Inquiry: Need inhibition of CCOC(=O)Nc1ccc(NCc2ccc(F)cc2)nc1N , thanks.
Reply text: -30.1

Hi there! I need inhibition for each item below, if you can.
1. CNC1CCCN(c2c(F)cc3c(=O)c(C(=O)O)cn(C4CC4)c3c2OC)C1 (stereo not given)
2. CC1(C(=O)O)CCC2(C)CCC3(C)C(=CC(=O)C4C5(C)CCC(OC(=O)CCC(=O)O)C(C)(C)C5CCC43C)C2C1 (stereo not given)

Reply text:
1. -14.1
2. -26.3
